tested.on: HLA-A*02:01 (Homo sapiens, UniProt P04439, D140Y/D185E/D98H/E176V/E277Q/G131W/G231S/I119V/I121R/I166T/I218V/L300P/L318F/N151K/N90K/P208A/P217A/Q86G/Q94H/R138H/R169H/T345S)
procedure.summary: MHC binding assay (UV-ligand exchange, β2m ELISA, peptide exchange yield)
condition.summary: MHC class I binding score; binding to HLA-A*02:01 ranged by peptide exchange yield (UV-ligand exchange, β2m ELISA)
property: Peptide exchange

// solved cases for Peptide exchange follow
substance	property	result
467 (FLAKDFNFL; listed as Homo sapiens) [compound 467]	Peptide exchange	″+++″ (≧50% = +++)
450 (FMIDASVHPTL; listed as Homo sapiens) [compound 450]	Peptide exchange	″+++″ (≧50% = +++)
485 (NVPDSFNEV; listed as Homo sapiens) [compound 485]	Peptide exchange	″+++″ (≧50% = +++)
395 (ALALGGIAVV; listed as Homo sapiens) [compound 395]	Peptide exchange	″++++″ (≧75% = ++++)
145 (FLATSGTLAGI; listed as Homo sapiens) [compound 145]	Peptide exchange	″++″ (≧20% = ++)

Lookup: Quick check: Peptide exchange of 33 (VLLSLLEKV; listed as Homo sapiens) [compound 33] ?
Found: ″++″ (≧20% = ++)

Lookup: Param item = 49 (YLPAVFEEV; listed as Homo sapiens) [compound 49] ; retrieve measured Peptide exchange.
Found: ″+++″ (≧50% = +++)

Lookup: Please look up its Peptide exchange: 460 (AMLEKNYKL; listed as Homo sapiens) [compound 460]
Found: ″++++″ (≧75% = ++++)

Lookup: Please give the measured Peptide exchange for this substance: 261 (YVLEFLEEI; listed as Homo sapiens) [compound 261]
Found: ″++″ (≧20% = ++)

* * *

tested.on: HLA-A*02:01 (Homo sapiens, UniProt P04439, D140Y/D185E/D98H/E176V/E277Q/G131W/G231S/I119V/I121R/I166T/I218V/L300P/L318F/N151K/N90K/P208A/P217A/Q86G/Q94H/R138H/R169H/T345S)
procedure.summary: MHC binding assay (UV-ligand exchange, β2m ELISA, peptide exchange yield)
condition.summary: MHC class I binding score; binding to HLA-A*02:01 ranged by peptide exchange yield (UV-ligand exchange, β2m ELISA)
property: Peptide exchange

Examples from the recorded data:
substance	Peptide exchange
55 (SLLDLETLSL; listed as Homo sapiens) [compound 55]	″++++″ (≧75% = ++++)
270 (LLLDEEGTFSL; listed as Homo sapiens) [compound 270]	″++″ (≧20% = ++)
549 (AMLENASDIKL; listed as Homo sapiens) [compound 549]	″+++″ (≧50% = +++)
295 (VLDRESPNV; listed as Homo sapiens) [compound 295]	″+++″ (≧50% = +++)
148 (ALNPEIVSV; listed as Homo sapiens) [compound 148]	″++″ (≧20% = ++)

Lookup: Name the recorded Peptide exchange for 236 (GLLEAKVSL; listed as Homo sapiens) [compound 236] .
Found: ″+++″ (≧50% = +++)

Lookup: Any idea what its Peptide exchange is? The substance is 207 (GLTSTNAEV; listed as Homo sapiens) [compound 207]
Found: ″++″ (≧20% = ++)

Lookup: Endpoint output: Peptide exchange of 316 (ILLERLWYV; listed as Homo sapiens) [compound 316] . Value?
Found: ″+++″ (≧50% = +++)

Lookup: Fill in the blank: the reported Peptide exchange of 21 (VLDELDMEL; listed as Homo sapiens) [compound 21] is ____.
Found: ″++″ (≧20% = ++)

Lookup: Using the record for 51 (LLPDLEFYV; listed as Homo sapiens) [compound 51] , report its Peptide exchange.
Found: ″++++″ (≧75% = ++++)

Lookup: Item 279 (ALWGGTQPLL; listed as Homo sapiens) [compound 279] has what recorded Peptide exchange?
Found: ″++″ (≧20% = ++)

Lookup: Recorded Peptide exchange of 172 (VLYSYTIITV; listed as Homo sapiens) [compound 172] , please.
Found: ″++″ (≧20% = ++)

Lookup: Quick one: Peptide exchange of 106 (LLYDAVHIVSV; listed as Homo sapiens) [compound 106] ?
Found: ″+++″ (≧50% = +++)

Lookup: Find the recorded Peptide exchange belonging to 496 (FLVEKQPPQV; listed as Homo sapiens) [compound 496] and report it.
Found: ″+++″ (≧50% = +++)

Lookup: Consider the substance 305 (SIANFSEFYV; listed as Homo sapiens) [compound 305] and give its measured Peptide exchange.
Found: ″++++″ (≧75% = ++++)

Lookup: Fill in the blank: the reported Peptide exchange of 287 (FLNEFFLNV; listed as Homo sapiens) [compound 287] is ____.
Found: ″+++″ (≧50% = +++)
